molecular target: T1, biotin-labeled human CD137 fused to human IgG1 Fc fragment (human CD137-Fc) (human, biotin-labeled); experiment: competitive bead ELISA, biotin-human CD137-Fc on beads; free CD3e 62.5 pmol against free Fc 62.5 pmol
T1 construct: also called biotin-human CD137-Fc
Metric: Signal decrease (%)
Return type: number; implicit unit %.

stdin: # Signal decrease lookup, item DXDU01_3#094 (antibody, human IgG1, V domains shown, also called dBBDu121) VH: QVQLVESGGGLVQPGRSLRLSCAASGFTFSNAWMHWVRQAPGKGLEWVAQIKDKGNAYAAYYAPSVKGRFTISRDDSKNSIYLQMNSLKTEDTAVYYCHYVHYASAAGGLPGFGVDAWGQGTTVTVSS VL: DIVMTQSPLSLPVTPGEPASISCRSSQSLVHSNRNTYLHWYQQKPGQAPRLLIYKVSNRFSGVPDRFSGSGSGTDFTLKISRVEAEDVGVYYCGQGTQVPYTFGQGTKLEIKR
stdout: 91.1

stdin: If you can, please state the reported Signal decrease value of anti-human CD137 antibody described in WO2005/035584A1 (abbreviated as B) (antibody, V domains shown, Control antibody; also called control anti-CD137 antibody) VH: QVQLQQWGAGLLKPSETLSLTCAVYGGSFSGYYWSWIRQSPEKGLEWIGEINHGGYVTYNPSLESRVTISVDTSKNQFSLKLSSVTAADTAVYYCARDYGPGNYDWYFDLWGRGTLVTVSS VL: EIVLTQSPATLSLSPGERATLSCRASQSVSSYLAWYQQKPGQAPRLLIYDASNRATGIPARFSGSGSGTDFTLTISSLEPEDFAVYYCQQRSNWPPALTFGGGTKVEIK .
stdout: 0.94

stdin: // returns reported Signal decrease for input DADU01_3#001 (antibody, human IgG1, V domains shown, also called dBBDu_126; dBBDu126) VH: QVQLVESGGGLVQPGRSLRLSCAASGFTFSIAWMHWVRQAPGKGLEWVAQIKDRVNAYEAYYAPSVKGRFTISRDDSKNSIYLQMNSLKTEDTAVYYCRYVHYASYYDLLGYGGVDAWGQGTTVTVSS VL: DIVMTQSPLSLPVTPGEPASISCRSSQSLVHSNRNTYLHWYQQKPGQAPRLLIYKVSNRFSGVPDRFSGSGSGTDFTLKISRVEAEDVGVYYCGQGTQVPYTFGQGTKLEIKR
stdout: 81.3

stdin: Which measured Signal decrease value corresponds to DXDU01_3#051 (antibody, human IgG1, V domains shown, also called dBBDu127) VH: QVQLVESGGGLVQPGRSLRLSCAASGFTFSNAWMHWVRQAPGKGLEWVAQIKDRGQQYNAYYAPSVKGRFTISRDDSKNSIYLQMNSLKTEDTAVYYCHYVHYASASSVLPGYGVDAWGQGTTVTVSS VL: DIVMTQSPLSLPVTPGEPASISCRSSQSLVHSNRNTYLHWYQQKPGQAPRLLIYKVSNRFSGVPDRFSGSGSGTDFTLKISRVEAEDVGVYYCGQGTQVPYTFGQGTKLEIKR ?
stdout: 91.6
